Test system: AS120
Test name: qHTS profiling for inhibitors of Plasmodium falciparum proliferation (AID 504749); note: nearly all actives have a fitted effect of over 60% in size
Condition parameters: P. falciparum in erythrocytes, SYBR Green DNA, 72 h; series mostly up to 28.7 µM
Records with an inconclusive call do not appear. Calls of active or inactive are those of the source. Calls come from the whole dose curve; as a rule, active = well fitted inhibition curve with a large enough effect; inconclusive = small, poorly fitted or top-dose-only effect; inactive = flat fitted curve, though single readings scatter.
Can you answer with just one of these options? active, inactive

Please let me know the test result on file for CC1(C)C(/C=C/C=C/C=C/C=C2\N(CCCCS(=O)(=O)O)c3ccc4ccccc4c3C2(C)C)=[N+](CCCCS(=O)(=O)[O-])c2ccc3ccccc3c21 .
inactive

Would you mind doing O=C(OCC1OC(OC(=O)c2cc(O)c(O)c(OC(=O)c3cc(O)c(O)c(O)c3)c2)[C@@H](OC(=O)c2cc(O)c(O)c(OC(=O)c3cc(O)c(O)c(O)c3)c2)C(OC(=O)c2cc(O)c(O)c(OC(=O)c3cc(O)c(O)c(O)c3)c2)C1OC(=O)c1cc(O)c(O)c(OC(=O)c2cc(O)c(O)c(O)c2)c1)c1cc(O)c(O)c(OC(=O)c2cc(O)c(O)c(O)c2)c1 (some centres undefined) as well?
active

Lookup CC(C)C[C@H](NC(=O)[C@@H](Cc1c[nH]c2ccccc12)NC(=O)[C@@H](Cc1ccc(O)cc1)NC(=O)[C@@H](CO)NC(=O)[C@@H](Cc1c[nH]c2ccccc12)NC(=O)C(Cc1cnc[nH]1)NC(=O)C1CCC(=O)N1)C(=O)N[C@@H](CCCN=C(N)N)C(=O)N1CCC[C@@H]1C(=O)NCC(N)=O (some centres undefined)
inactive

And the next one, CCC(C)C1NC(=O)C(Cc2ccc(O)cc2)NC(=O)C(N)CSSCC(C(=O)N2CCCC2C(=O)NC(CC(C)C)C(=O)NCC(N)=O)NC(=O)C(CC(N)=O)NC(=O)C(CCC(N)=O)NC1=O (centres undefined) ?
inactive
